All figures here come from patent US20170296640A1.

Measured peptide exchange yield of individual entries
# subject_of_test: T1, HLA-A*02:01 (peptide-receptive MHC class I monomer after UV cleavage of the UV-sensitive ligand) (human)
# T1 construct: MHC monomers loaded by UV-ligand exchange and captured on streptavidin plates
# assay_remarks: UV ligand-exchange ELISA; exchange yield grade (+ >=10%, ++ >=20%, +++ >=50%, ++++ >=75%)
measurement_kind: peptide exchange yield

INSERT INTO measurements (binder, measurement_kind, result) VALUES
  ('GLPDLDIYL [GLPDLDIYL (SEQ ID NO: 243)]', 'peptide exchange yield', '≥ 75%'),
  ('KLAPIPVEL [KLAPIPVEL (SEQ ID NO: 66)]', 'peptide exchange yield', '≥ 75%'),
  ('MLQDGIARL [MLQDGIARL (SEQ ID NO: 98)]', 'peptide exchange yield', '50 to 75%'),
  ('ILNPVTTKL [ILNPVTTKL (SEQ ID NO: 149)]', 'peptide exchange yield', '50 to 75%'),
  ('ALYAVIEKA [ALYAVIEKA (SEQ ID NO: 8)]', 'peptide exchange yield', '50 to 75%'),
  ('SLDQSTWNV [SLDQSTWNV (SEQ ID NO: 101)]', 'peptide exchange yield', '≥ 75%'),
  ('VLYELLQYI [VLYELLQYI (SEQ ID NO: 106)]', 'peptide exchange yield', '≥ 75%'),
  ('LTIDTQYYL [LTIDTQYYL (SEQ ID NO: 3)]', 'peptide exchange yield', '50 to 75%');
